# credit: PubChem BioAssay AID1565

- target-under-test: Phosphoethanolamine/phosphocholine phosphatase (Homo sapiens) (UniProt Q8TCT1)
- Sequence (Q8TCT1 whole entry, looked up): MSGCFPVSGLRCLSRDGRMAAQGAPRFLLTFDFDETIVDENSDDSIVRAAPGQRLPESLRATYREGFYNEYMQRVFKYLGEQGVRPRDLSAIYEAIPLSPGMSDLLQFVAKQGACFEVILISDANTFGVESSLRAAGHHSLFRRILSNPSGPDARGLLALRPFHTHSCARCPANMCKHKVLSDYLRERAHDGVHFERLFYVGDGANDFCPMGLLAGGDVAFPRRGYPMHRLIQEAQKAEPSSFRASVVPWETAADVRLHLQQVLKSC
- assay: PubChem AID 1565
- recorded-conditions: recombinant PHOSPHO1, absorbance phosphatase assay; at 13.3 µM; hits give high values
Hit rate of the full screen: of about 290,000 compounds, about 3,200 (1.1%) were called active. Only a selection was taken, and actives are over-represented in it overall.
// values below are reported inhibition
Give the value, in units of %, as a plain number.

# compound, inhibition / %
records = [
    ("CCOc1ccc(OCCSc2nc3ccccc3n2CC(=O)O)cc1", 13.8),
    ("CN1C/C(=C/c2cccs2)C(=O)/C(=C\\c2cccs2)C1", 16.1),
    ("COc1ccc(CNC(=O)C(NS(=O)(=O)c2cccc3nsnc23)C(C)C)cc1 (centres undefined)", 59.8),
    ("O=C(Nc1ccc(C(=O)NCc2ccccc2Cl)cc1)C1=CSCCO1", 37.5),
    ("CSCCC(NC(=O)c1cc([N+](=O)[O-])cc([N+](=O)[O-])c1)c1nc2ccccc2[nH]1 (centres undefined)", -8.6),
]

The compound identified as COc1ccc(C)cc1-n1nnnc1SCC(=O)c1cc(C)n(Cc2ccco2)c1C registered its inhibition at 90.1

The compound identified as Cc1cc(-c2ccc(C)c(S(=O)(=O)Nc3ccc(S(N)(=O)=O)cc3)c2)on1 registered its inhibition at 44.5

The compound identified as CCCc1c(C(=O)Nc2ccc(F)cc2)cnn1-c1ccccc1 registered its inhibition at 41.2

The compound identified as Cc1ccc(S(=O)(=O)c2nnn3c2nc(N2CCN(c4ccccn4)CC2)c2ccccc23)cc1 registered its inhibition at 14.6

The compound identified as O=C(CNC(=O)c1ccccc1)NCC(=O)OCc1ccc(Cl)cc1 registered its inhibition at 62.3

The compound identified as CN(c1ccccc1)S(=O)(=O)c1ccc2[nH]c(=O)[nH]c2c1 registered its inhibition at 2.8

The compound identified as Cc1cc(C)nc(SCC(=O)c2ccc(Cl)cc2)n1 registered its inhibition at 27

The compound identified as COC(=O)c1cc(C(=O)NC(C)C2CC3CCC2C3)cc([N+](=O)[O-])c1 (centres undefined) registered its inhibition at 26.5

The compound identified as O=C(Nc1nccs1)C1CCCN1S(=O)(=O)c1cccc2cccnc12 (centres undefined) registered its inhibition at 2.7

The compound identified as COc1ccc(S(=O)(=O)NNC(=O)Nc2ccc(C)cc2)c(OC)c1 registered its inhibition at 21.8

The compound identified as COc1ccc(N(CC(=O)N2CCOCC2)S(=O)(=O)c2ccccc2)cc1Cl registered its inhibition at 12.6

The compound identified as CS(=O)(=O)c1ccc(-c2nnn(CC(=O)Nc3ccc4c(c3)OCCO4)n2)cc1 registered its inhibition at 11

The compound identified as CCC(C(=O)OC)n1cnc2c(oc3ccccc32)c1=O (centres undefined) registered its inhibition at 1

The compound identified as CSCCC(NC(=O)c1ccc(=O)n(C)n1)c1nc2ccccc2[nH]1 (centres undefined) registered its inhibition at 79.8

The compound identified as COc1ccc(-c2nnc(SCc3cccnc3)o2)cc1 registered its inhibition at -4.4

====

- target-under-test: Phosphoethanolamine/phosphocholine phosphatase (Homo sapiens)
- assay: PubChem AID 1565
- recorded-conditions: recombinant PHOSPHO1, absorbance phosphatase assay; at 13.3 µM
Hit rate of the full screen: of about 290,000 compounds, about 3,200 (1.1%) were called active. No stated cut-off is given here; in the data, active means inhibition above about 60%; inactive means the rest. This is one part of a sample in which actives are shown more often than they occur.
Would you mind answering with one of these outcomes? t = active, f = inactive

Use the examples below as a reference point.
# compound, group-label
records = [
    ("CCCn1c(SCC(=O)N2CCc3ccccc32)nnc1-c1ccncc1", "f"),
    ("Clc1c(OCCCn2ccnc2)ccc2ccccc12", "f"),
    ("C=CCn1c(CNS(=O)(=O)c2ccc(Br)cc2)nnc1SC", "f"),
    ("CCn1c(Cc2ccccc2)nnc1SCc1nc2ccccc2c(=O)[nH]1", "f"),
    ("Cn1cc(CNC(=O)c2ccc(OC3CCN(Cc4ccccn4)CC3)cc2)cn1", "t"),
    ("S=c1[nH]nc2c3c4c(sc3ncn12)CCCC4", "t"),
    ("CC(=O)c1cccc(NC(=O)CN2C(=O)c3cccnc3Oc3ccc(Cl)cc32)c1", "f"),
    ("CCN(CC)C(=O)c1sc2nc(-c3ccccc3)ccc2c1N", "f"),
    ("O=C(CN1CCN(c2ccccc2)CC1)Nc1ccc(F)cc1", "f"),
    ("O=C(NNC(=S)Nc1ccc(F)cc1)[C@H]1C[C@@H]1c1ccccc1", "t"),
]

What is the recorded call for this compound in the test? C=CCn1c(SCc2cc(C(=O)OC)c(C)o2)nnc1-c1ccncc1 t

What is the recorded call for this compound in the test? COC(=O)c1ccc(NC(=O)CSc2nnc(-c3ccncc3)n2C)cc1 f

What is the recorded call for this compound in the test? CCCc1cc(-c2n[nH]c(=S)n2Cc2ccccc2)cs1 t

What is the recorded call for this compound in the test? COc1ccc(Cc2n[nH]c(=S)n2NC(=O)Nc2ccc(C)cc2)cc1 f

What is the recorded call for this compound in the test? Cc1ccc(OCc2n[nH]c(=S)n2-c2ccc(C)cc2)cc1 f

What is the recorded call for this compound in the test? O=S(=O)(NC(=S)Nc1ccccc1)c1ccc(F)cc1 f

What is the recorded call for this compound in the test? CCCOC1CCCN(Cc2cn(C)nc2-c2ccccc2F)C1 (centres undefined) t

What is the recorded call for this compound in the test? COc1cccc2cc(C(=O)NCc3ccc(C)cc3)c(=N)oc12 f

What is the recorded call for this compound in the test? Cn1cc(CN2CCCC(CO)C2)c(-c2ccc(Oc3ccccc3)cc2)n1 (centres undefined) f

====

// values below are reported inhibition
- target-under-test: Phosphoethanolamine/phosphocholine phosphatase (Homo sapiens)
- assay: PubChem AID 1565
- recorded-conditions: recombinant PHOSPHO1, absorbance phosphatase assay; at 13.3 µM; hits give high values
Hit rate of the full screen: of about 290,000 compounds, about 3,200 (1.1%) were called active. This is one part of a sample in which actives are shown more often than they occur.
Give the value, in units of %, as a plain number.

# compound, value-measured
measured = [
    ("COc1cc(C(=O)NCc2nnc(SCC(=O)c3ccc(Cl)cc3)o2)cc(OC)c1OC", 43.5),
    ("O=c1/c(=C/c2ccc(CNS(=O)(=O)c3ccccc3)o2)sc2n1CCN=2", 97.8),
    ("COc1ccc(OC)c(-n2nnnc2SCC(=O)Nc2cc(C)ccc2OC)c1", -22.4),
    ("CC1CCC(NC(=O)CN(C)S(=O)(=O)c2ccc3c(c2)c(=O)n(C)c(=O)n3C)CC1 (centres undefined)", 58.3),
    ("COc1ccc(CNC(=O)COc2cccnc2[N+](=O)[O-])cc1", 39.9),
    ("CS(=O)(=O)NCc1ccc(C(=O)NCc2ccccc2)cc1", -10),
]

The compound identified as Cn1c(Cn2nnc3ccccc32)nnc1SCC(=O)c1ccccc1F registered its inhibition at 68.8

The compound identified as Cc1occc1C(=O)N/N=C/c1ccc(-c2cccc([N+](=O)[O-])c2)o1 registered its inhibition at 40.3

The compound identified as COc1ccc(-c2nnc(SC(=O)N3c4ccccc4Sc4ccccc43)o2)cc1 registered its inhibition at 81.1

The compound identified as COc1ccc(CC(=O)N[C@@H](CCSC)c2nc3ccccc3[nH]2)cc1 registered its inhibition at 12.4

The compound identified as CSc1ccc(CNC(=O)c2ccc(NC(=O)C3=CSCCO3)cc2)cc1 registered its inhibition at 69

The compound identified as Cc1nn(CC(=O)NCCc2ccccc2)c(=O)c2cc3occc3n12 registered its inhibition at -36.2

The compound identified as Cc1c(C(=O)NCC(c2ccco2)N2CCCC2)oc2ccc(Cl)cc12 (centres undefined) registered its inhibition at 7

The compound identified as COc1ccc(/C=N/NC(=O)C2CC2)c(OC)c1OC registered its inhibition at 21.2
